Biological target: CYP1A2 (Homo sapiens)
Sequence (P05177 whole entry): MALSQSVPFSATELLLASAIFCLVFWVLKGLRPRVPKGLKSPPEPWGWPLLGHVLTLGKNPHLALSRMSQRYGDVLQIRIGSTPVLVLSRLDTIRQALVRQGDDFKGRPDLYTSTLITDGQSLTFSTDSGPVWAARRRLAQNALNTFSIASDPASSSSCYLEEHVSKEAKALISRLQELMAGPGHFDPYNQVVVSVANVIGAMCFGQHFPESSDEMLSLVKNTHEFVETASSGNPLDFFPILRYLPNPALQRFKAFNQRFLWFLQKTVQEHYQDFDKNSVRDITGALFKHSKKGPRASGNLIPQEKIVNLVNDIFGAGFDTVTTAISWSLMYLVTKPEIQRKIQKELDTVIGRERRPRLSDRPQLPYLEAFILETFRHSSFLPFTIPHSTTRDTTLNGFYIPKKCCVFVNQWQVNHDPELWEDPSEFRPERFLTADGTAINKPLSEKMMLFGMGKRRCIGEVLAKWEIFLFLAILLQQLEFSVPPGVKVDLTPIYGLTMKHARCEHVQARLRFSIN
Test: CYP1A2 inhibition in suspended HH
Assay type: cell-based
Conditions: TCR/1'-OH, source [3] In house

smiles str	IC50 [µM]
CCn1cc(C(=O)O)c(=O)c2cc(F)c(N3CCNCC3)nc21	422

---

Test: Steady-state cellular uptake (Kp) in suspended HH
Type: in vitro ADME
Details: human, suspended human hepatocytes, RO compounds, parameters matched to the IC50 assay
Please use condition met for Kp at 5 min, 0.5 μM under 20 and condition not met for everything else, ties included.

compound	classification
COCCc1sc(S(=O)(=O)NC(=O)Nc2snc(C)c2Br)cc1C [RO09]	condition met
Cc1cccc(S(=O)(=O)NC(=O)Nc2snc(C)c2Br)c1 [RO08]	condition not met
COc1cc(C)c(-c2sc(S(=O)(=O)NC(=O)Nc3ncc(Br)s3)cc2C)cn1 [RO07]	condition not met
COCc1oc(S(=O)(=O)NC(=O)Nc2ncc(Br)s2)cc1C [RO03]	condition met
O=C(Nc1ncc(Br)s1)NS(=O)(=O)c1cc2cccc(Cl)c2s1 [RO05]	condition met
Cc1cccc2cc(S(=O)(=O)NC(=O)Nc3ncc(Br)s3)sc12 [RO02]	condition not met
Cc1cccc(S(=O)(=O)NC(=O)Nc2cc(Br)cc(N)n2)c1 [RO01]	condition not met
Cn1c(S(=O)(=O)NC(=O)Nc2ncc(Br)s2)cc2ccccc21 [RO06]	condition not met
COCc1oc(S(=O)(=O)NC(=O)Nc2nc(C)c(Br)s2)cc1C [RO04]	condition not met

---

Collected Kp uu values appear next to each entry.
Assay: Intracellular unbound drug accumulation ratio (Kpuu) in suspended HH
Assay type: in vitro ADME, human
Conditions: human, suspended human hepatocytes; suspended HH; azole series

compound	Kp uu
CC[C@@H]([C@H](C)O)n1ncn(-c2ccc(N3CCN(c4ccc(OC[C@@H]5CO[C@@](Cn6cncn6)(c6ccc(F)cc6F)C5)cc4)CC3)cc2)c1=O [Posaconazole, reference compound]	37.6
CCC(C)n1ncn(-c2ccc(N3CCN(c4ccc(OCC5COC(Cn6cncn6)(c6ccc(Cl)cc6Cl)O5)cc4)CC3)cc2)c1=O (centres unmarked) [Itraconazole, reference compound]	7.5

---

Assay: Kpuu in rat hepatocytes derived from literature Kp
Type: in vitro ADME
Conditions: literature rat Kp x experimental (human) fu,cell
Collected Kp uu values appear next to each entry.

compound	Kp uu
CC[C@H]1OC(=O)[C@H](C)[C@@H](O[C@H]2C[C@@](C)(OC)[C@@H](O)[C@H](C)O2)[C@H](C)[C@@H](O[C@@H]2O[C@H](C)C[C@H](N(C)C)[C@H]2O)[C@](C)(OC)C[C@@H](C)C(=O)[C@H](C)[C@@H](O)[C@]1(C)O [Clarithromycin]	2.27
CCn1cc(C(=O)O)c(=O)c2cc(F)c(N3CCNCC3)nc21 [Enoxacin]	20

---

Test: Intracellular unbound drug accumulation ratio (Kpuu) in suspended HH
Assay type: in vitro ADME, human
Conditions: human, suspended human hepatocytes, suspended HH; RO compounds
Method: Kpuu was determined as previously described ([7],[18]) using Eq. (1): 1 Kpuu=Kp∙fu,cell/fu,medium where Kp is the steady-state cellular uptake, and fu,cell the fraction of unbound compound in the cell, determined as described below. The fraction unbound of the compound in the medium (fu,medium) was equal to 1 as no serum proteins or other drug binding components were added to the incubation media.
Tick True if Kp uu is 0.2 or greater. Tick False if Kp uu is less than 0.2.

compound	classification
Cc1cccc(S(=O)(=O)NC(=O)Nc2snc(C)c2Br)c1 [RO08]	True
Cc1cccc2cc(S(=O)(=O)NC(=O)Nc3ncc(Br)s3)sc12 [RO02]	False
COCCc1sc(S(=O)(=O)NC(=O)Nc2snc(C)c2Br)cc1C [RO09]	False
O=C(Nc1ncc(Br)s1)NS(=O)(=O)c1cc2cccc(Cl)c2s1 [RO05]	False
Cc1cccc(S(=O)(=O)NC(=O)Nc2cc(Br)cc(N)n2)c1 [RO01]	True
COCc1oc(S(=O)(=O)NC(=O)Nc2nc(C)c(Br)s2)cc1C [RO04]	True
Cn1c(S(=O)(=O)NC(=O)Nc2ncc(Br)s2)cc2ccccc21 [RO06]	True
COc1cc(C)c(-c2sc(S(=O)(=O)NC(=O)Nc3ncc(Br)s3)cc2C)cn1 [RO07]	False
COCc1oc(S(=O)(=O)NC(=O)Nc2ncc(Br)s2)cc1C [RO03]	True
